System: Lolium perenne (LOLPE)
Protocol details: Post-emergence efficacy, glasshouse, evaluated after 13 days
Format: in vivo
Setup conditions: Lolium perenne, 312 h; post-emergence application, 500 g/Ha, evaluated after 13 days; read-out: Control of weed species LOLPE (100=total damage to plant; 0=no damage to plant)
// returns Condition not met unless pest or weed control at 500 g/ha is strictly below 70%, in which case Condition met

// below: answered molecules
| Smiles str | Assigned label |
| --- | --- |
| CCC1(NC(=O)c2cc[n+](CCC(=O)O)nc2)CC1 | Condition not met |
| CCNC(=O)c1cc[n+](CCP(=O)(O)O)nc1 | Condition met |

Problem: Given the entry "O=C(NC1CC1)c1cc[n+](CCCOS(=O)(=O)[O-])nc1" , would its reported pest or weed control at 500 g/ha be below 70%?
Solution: Condition met

Problem: Given the entry "CC(C)N(C(=O)c1cc[n+](CCS(=O)(=O)O)nc1)C(C)C" , would its reported pest or weed control at 500 g/ha be below 70%?
Solution: Condition met

###

This section presents compounds with their documented pest or weed control at 500 g/ha values.
Tested on: Ipomoea hederacea (IPOHE)
Protocol details: Post-emergence efficacy, glasshouse, evaluated after 13 days
Format: in vivo
Setup conditions: Ipomoea hederacea, 312 h; post-emergence application, 500 g/Ha, evaluated after 13 days; read-out: Control of weed species IPOHE (100=total damage to plant; 0=no damage to plant)
Kindly answer with a numeric value in %, unit omitted.

| Compound | Assayed system | Readout kind | Unit | Obs value |
| --- | --- | --- | --- | --- |
| O=C(O)CC[n+]1ccc(C(=O)N2CCCC2)cn1 [Compound A26] | Ipomoea hederacea (IPOHE) | pest or weed control at 500 g/ha | % | 40 |
| CNC(=O)c1cn[n+](CCC(=O)O)cc1C [Compound A53] | Ipomoea hederacea (IPOHE) | pest or weed control at 500 g/ha | % | 50 |
| O=C(O)CC[n+]1ccc(C(=O)NC2CCCCC2)cn1 [Compound A59] | Ipomoea hederacea (IPOHE) | pest or weed control at 500 g/ha | % | 20 |
| CC1(C)CC(NC(=O)c2cc[n+](CCC(=O)O)nc2)=NO1 [Compound A131] | Ipomoea hederacea (IPOHE) | pest or weed control at 500 g/ha | % | 30 |
| C#CC(C)NC(=O)c1cc[n+](CCC(=O)O)nc1 (centres unmarked) [Compound A78] | Ipomoea hederacea (IPOHE) | pest or weed control at 500 g/ha | % | 90 |
| CCNC(=O)c1cc[n+](CCNS(=O)(=O)C(F)(F)F)nc1 [Compound A73] | Ipomoea hederacea (IPOHE) | pest or weed control at 500 g/ha | % | 80 |

Problem: Hello, please tell me recorded pest or weed control at 500 g/ha for this one: O=C(NC1CC1)c1cc[n+](CCS(=O)(=O)[O-])nc1 [Compound A30]
Solution: 70

###

Tested on: Ipomoea hederacea (IPOHE)
Protocol details: Post-emergence efficacy, glasshouse, evaluated after 13 days
Format: in vivo
Setup conditions: Ipomoea hederacea, 312 h; post-emergence application, 500 g/Ha, evaluated after 13 days; read-out: Control of weed species IPOHE (100=total damage to plant; 0=no damage to plant)
Method: Seeds of a variety of test species were sown in standard soil in pots. […] The test plants were then grown in a glasshouse under controlled conditions (at 24/16° C., day/night; 14 hours light; 65% humidity) and watered twice daily. After 13 days the test was evaluated (100=total damage to plant; 0=no damage to plant). […]
Readout kind: pest or weed control at 500 g/ha
Field: value (include unit after the number)

Examples with their reported pest or weed control at 500 g/ha follow.
| Smiles str | pest or weed control at 500 g/ha |
| --- | --- |
| COCCNC(=O)c1cc[n+](CCCOS(=O)(=O)[O-])nc1 | 60% |
| Cn1ncnc1CCNC(=O)c1cc[n+](CCC(=O)O)nc1 | 50% |
| O=C(NCCO)c1cc[n+](CCS(=O)(=O)[O-])nc1 | 70% |
| CC1(NC(=O)c2cc[n+](CCNS(=O)(=O)[O-])nc2)CC1 | 30% |

Problem: Hello, please tell me recorded pest or weed control at 500 g/ha for this one: "O=C(O)CC[n+]1ccc(C(=O)NCc2ccc(F)cc2)cn1"
Solution: 40%
